test system: SK-MEL-28; assay: NCI tumour cell line growth inhibition, 48 h
Calls of active or inactive are those of the source. Rule as the data show it: active = GI50 up to about 1.1 µM and inactive = higher.
Overview of recorded GI50 for various compounds

Study these solved cases before continuing.
For record O=C1/C(=C/c2ccccc2)CN(C(=O)C(F)(F)F)C/C1=C\c1ccccc1 the listed GI50 is 1.83 µM (inactive)

Reported GI50 of O=C(CCCn1cnc([N+](=O)[O-])n1)NCCCn1ccnc1[N+](=O)[O-] : > 100 µM (inactive)

The measured GI50 associated with O=C(O)CN1CCCC(Cc2c[nH]c3ccccc23)C1 (stereo not given) reads > 100 µM (inactive)

Further cases:
// GI50 value for COc1ccc2nc3ccc(OC)cc3c(SCC3CO3)c2c1 (stereo not given) : 17.7 µM (inactive)

// sample CC(=O)SSC1(Cl)C(C)(C)C(Cl)(SSC(C)=O)C1(C)C (stereo not given) , its GI50 was > 100 µM (inactive)
